B1: PDZK1 (parent)
chain: QKEQGLSDNILSPVMNGGVQTWTQ

# Variants of: B1
# test.summary: protein stability index of a GFP-peptide fusion (GPS, HEK-293T) (PSI 1-6); higher = more stable;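 also: lentivirally expressed fusions sorted by FACS into six bins by GFP to DsRed ratio, PSI derived from sequencing read proportions per bin multiplied by bin number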
# condition.context: c terminus: a fixed tail appended
Class true (1): protein stability index at least 3. Class false (0): protein stability index below 3.

• V14R = false (0)

**Q:** Record V14N ; criterion: protein stability index no lower than 3. Met?
**A:** false (0)

**Q:** Record T21C ; criterion: protein stability index no lower than 3. Met?
**A:** false (0)

**Q:** Record T21K ; criterion: protein stability index no lower than 3. Met?
**A:** true (1)

**Q:** Record L6K ; criterion: protein stability index no lower than 3. Met?
**A:** true (1)

**Q:** Record L11I ; criterion: protein stability index no lower than 3. Met?
**A:** false (0)

**Q:** Record N9F ; criterion: protein stability index no lower than 3. Met?
**A:** false (0)

**Q:** Record Q4Y ; criterion: protein stability index no lower than 3. Met?
**A:** false (0)

**Q:** Record S7I ; criterion: protein stability index no lower than 3. Met?
**A:** false (0)

**Q:** Record S12T ; criterion: protein stability index no lower than 3. Met?
**A:** false (0)

**Q:** Record Q24P ; criterion: protein stability index no lower than 3. Met?
**A:** true (1)

**Q:** Record Q24S ; criterion: protein stability index no lower than 3. Met?
**A:** false (0)

**Q:** Record Q4D ; criterion: protein stability index no lower than 3. Met?
**A:** true (1)

**Q:** Record Q1R ; criterion: protein stability index no lower than 3. Met?
**A:** false (0)

**Q:** Record Q24C ; criterion: protein stability index no lower than 3. Met?
**A:** false (0)

**Q:** Record Q1I ; criterion: protein stability index no lower than 3. Met?
**A:** false (0)
